Ref: paper PMC3320615

System: Candida albicans ATCC 90028
ASSAY DETAILS: CFU assay with C. albicans
Format: cell-based
CONDITION CONTEXT: control - treatment; 5 µM; pH 4; without EDTA; experiment 2
READOUT TYPE: Estimate (difference between means of log values)
Just the number.

[Q] Provide one value: measured Estimate (difference between means of log values) of SCYFIPNEGVPGDSTRKCMD [MSP1, synthetic MSP-derived peptide]
[A] -0.6938

[Q] Provide one value: measured Estimate (difference between means of log values) of RKCMDLKGNKHPINSEWQTD [MSP2, synthetic MSP-derived peptide]
[A] -0.7678

[Q] Provide one value: measured Estimate (difference between means of log values) of KDNCQRIFKKEDCKYIVVEK [MSP5, synthetic MSP-derived peptide encompassing residues 61–80]
[A] 0.3334

[Q] Provide one value: measured Estimate (difference between means of log values) of EWQTDNCETCTCYETEISCC [MSP3, synthetic MSP-derived peptide]
[A] -0.7316

[Q] Provide one value: measured Estimate (difference between means of log values) of IVVEKKDPKKTCSVSEWII [MSP6, synthetic MSP-derived peptide]
[A] 0.07848

***
[Q] Provide one value: measured Estimate (difference between means of log values) of EISCCTLVSTPVGYDKDNCQ [MSP4, synthetic MSP-derived peptide]
[A] -0.8100

###

Test system: Candida albicans ATCC 90028
ASSAY DETAILS: CFU assay with C. albicans
Format: cell-based
CONDITION CONTEXT: control - treatment; 5 µM; pH 4; with EDTA; experiment 2
Method: Candida albicans strains: ATCC 90028, CAF-1-2, SC5814, BM4f35II68, vaginal clinical isolates from Dept. of Clincal Microbiology, Skåne University Hospital, SO_303369 and SO_503471. Candida parapsilosis strains: ATCC 90018, BD1800, BD17837, and BM24/68/09. […] Candida albicans was grown over night, washed, and resuspended in 10 mM Tris, 5 mM glucose, pH 7.4 or pH 4. […] Colonies were counted after two days incubation of the plates at 30°C. […]
Checkbox rule: Estimate (difference between means of log values) lower than 0.05 = y; Estimate (difference between means of log values) not lower than 0.05 = n.

[Q] Strictly below 0.05 in Estimate (difference between means of log values)? EISCCTLVSTPVGYDKDNCQ [MSP4, synthetic MSP-derived peptide]
[A] y

[Q] Strictly below 0.05 in Estimate (difference between means of log values)? KDNCQRIFKKEDCKYIVVEK [MSP5, synthetic MSP-derived peptide encompassing residues 61–80]
[A] n

[Q] Strictly below 0.05 in Estimate (difference between means of log values)? IVVEKKDPKKTCSVSEWII [MSP6, synthetic MSP-derived peptide]
[A] n

***
[Q] Strictly below 0.05 in Estimate (difference between means of log values)? EWQTDNCETCTCYETEISCC [MSP3, synthetic MSP-derived peptide]
[A] n

[Q] Strictly below 0.05 in Estimate (difference between means of log values)? RKCMDLKGNKHPINSEWQTD [MSP2, synthetic MSP-derived peptide]
[A] n

[Q] Strictly below 0.05 in Estimate (difference between means of log values)? SCYFIPNEGVPGDSTRKCMD [MSP1, synthetic MSP-derived peptide]
[A] y

###

Tested on: Candida albicans ATCC 90028
ASSAY DETAILS: CFU assay with C. albicans
Format: cell-based
CONDITION CONTEXT: control - treatment; 5 µM; pH 4; without EDTA; experiment 3
As shown below, each of these sequences has a reported Estimate (difference between means of log values) value.

[Q] Provide one value: measured Estimate (difference between means of log values) of SCYFIPNEGVPGDSTRKCMD [MSP1, synthetic MSP-derived peptide]
[A] -0.2057

[Q] Provide one value: measured Estimate (difference between means of log values) of EWQTDNCETCTCYETEISCC [MSP3, synthetic MSP-derived peptide]
[A] -0.09956

[Q] Provide one value: measured Estimate (difference between means of log values) of IVVEKKDPKKTCSVSEWII [MSP6, synthetic MSP-derived peptide]
[A] 0.9139

[Q] Provide one value: measured Estimate (difference between means of log values) of RKCMDLKGNKHPINSEWQTD [MSP2, synthetic MSP-derived peptide]
[A] 0.2466

[Q] Provide one value: measured Estimate (difference between means of log values) of KDNCQRIFKKEDCKYIVVEK [MSP5, synthetic MSP-derived peptide encompassing residues 61–80]
[A] 0.6913

Now turn to the next sequence.
[Q] Provide one value: measured Estimate (difference between means of log values) of EISCCTLVSTPVGYDKDNCQ [MSP4, synthetic MSP-derived peptide]
[A] -0.2155
